# credit: ChEMBL document CHEMBL3867445

assay: Antiinflammatory activity in human neutrophils assessed as inhibition of fMLP/CB-induced superoxide anion generation by measuring superoxide dismutase-inhibitable reduction of ferricytochrome c at 10 uM preincubated for 5 mins followed by fMLP/CB-induction measured after 10 mins; format: functional; settings: Neutrophil
measurement-type: inhibition at 10 µM (%)

>>> observed_result("C=C1CC[C@]2(C[C@@H]1O)C(=C)C[C@H](O)[C@@H](Br)C2(C)C")
10
>>> observed_result("C=C1C[C@@H](O)[C@@H](Br)C(C)(C)[C@@]12C=C[C@@](O)(C(Br)Br)CC2 [MAILIOHYDRIN]")
13
>>> observed_result("C=C1C[C@@H](O)[C@@H](Br)C(C)(C)[C@@]12C=C/C(=C/Br)CC2")
18
>>> observed_result("CC1=CC(=O)CC(C)(C)[C@@]12C=C/C(=C/Br)CC2")
7
>>> observed_result("CO[C@@]1(C)CC[C@]2(C[C@H]1Br)C(C)=C[C@H](O)CC2(C)C")
12
>>> observed_result("CC1=C[C@H](O)[C@@H](Br)C(C)(C)[C@@]12C=C[C@](C)(O)CC2")
13
>>> observed_result("CC1(C)[C@H](Br)[C@H](O)C[C@@]2(CO2)[C@@]12CCC(=O)[C@@H]1O[C@@H]12")
9
>>> observed_result("C=C1C[C@@H](O)[C@@H](Br)C(C)(C)[C@]12CCC(=O)[C@H]1O[C@H]12")
6
>>> observed_result("CC1=CC(=O)CC(C)(C)[C@@]12C=CC(=O)CC2")
4
>>> observed_result("Cc1ccc([C@]2(C)C[C@H](O)[C@@H](Br)C2(C)C)cc1")
17
